Where do these numbers come from? They come from paper PMC3634413.

Reported Endpoint: melting point (°C)

>>> val("Cc1c(-c2ccnc(S)n2)sc2sc(-c3ccnc(S)n3)c(-c3ccccc3)c12 [Compound 4b]")
247
>>> val("Cc1c(-c2ccnc(O)n2)sc2sc(-c3ccnc(O)n3)c(-c3ccccc3)c12 [Compound 4a]")
248
>>> val("Cc1c(C(=O)C=CN(C)C)sc2sc(C(=O)C=CN(C)C)c(-c3ccccc3)c12 [Compound 3]")
250
>>> val("Cc1c(-c2ccnc(N)n2)sc2sc(-c3ccnc(N)n3)c(-c3ccccc3)c12 [Compound 4c]")
246
>>> val("Cc1c(-c2cc[nH]n2)sc2sc(-c3cc[nH]n3)c(-c3ccccc3)c12 [Compound 5a]")
177
>>> val("Cc1c(-c2ccnc3nc4ccccc4n23)sc2sc(-c3ccnc4nc5ccccc5n34)c(-c3ccccc3)c12 [Compound 7]")
245
>>> val("Cc1c(-c2ccnc3ncnn23)sc2sc(-c3ccnc4ncnn34)c(-c3ccccc3)c12 [Compound 6]")
245
